Biological target: UniProt:P18089
Sequence (P18089 1-450): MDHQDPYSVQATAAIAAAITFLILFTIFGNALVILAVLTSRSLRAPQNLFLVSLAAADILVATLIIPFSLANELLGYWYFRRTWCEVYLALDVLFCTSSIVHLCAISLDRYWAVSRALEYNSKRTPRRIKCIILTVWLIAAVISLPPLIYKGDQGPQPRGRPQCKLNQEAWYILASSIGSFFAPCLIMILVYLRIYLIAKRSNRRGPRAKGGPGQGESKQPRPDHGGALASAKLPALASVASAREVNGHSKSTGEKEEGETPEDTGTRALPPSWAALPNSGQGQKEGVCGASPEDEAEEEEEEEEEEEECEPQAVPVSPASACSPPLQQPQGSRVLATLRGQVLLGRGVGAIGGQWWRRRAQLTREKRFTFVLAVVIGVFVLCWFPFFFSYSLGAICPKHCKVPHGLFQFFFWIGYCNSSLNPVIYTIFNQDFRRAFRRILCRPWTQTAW
Test: PDSP radioligand binding assay
Conditions: Table 5
Experimental endpoint: Ki (µM)
Output spec: scalar in µM, unitless text.

Problem: Need Ki, item COc1ccc(N2CCN(CCCNC(=O)Cn3c(=O)c4cccn4c4c(C)ccnc43)CC2)cc1
Result: 7.7

The reported measurements were obtained from patent US9345703B2.
